Ref: paper PMC12001967

- tested-system: T1, ProQ (Escherichia coli, UniProt P45577 1-232)
- T1 sequence: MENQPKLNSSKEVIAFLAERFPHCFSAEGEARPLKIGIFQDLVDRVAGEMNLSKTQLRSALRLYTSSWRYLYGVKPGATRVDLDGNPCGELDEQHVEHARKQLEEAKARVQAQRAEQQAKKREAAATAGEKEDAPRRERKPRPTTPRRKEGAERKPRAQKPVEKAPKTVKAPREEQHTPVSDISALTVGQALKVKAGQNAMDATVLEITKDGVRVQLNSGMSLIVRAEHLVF
- method-summary: EMSA; 25 mM Tris-HCl pH 7.5, 150 mM NaCl, 5% glycerol, 1 mM MgCl2, 1 nM 32P-RNA, 30 min at room temperature; native 6% PAGE in 0.5x TBE at 4 C
- measurement-parameters: protein: recombinant; tags: pET-15b construct; label: 32P
experimental-endpoint: Kd (nM)
Quick reminder: number only, in nM, skip the unit.

Query :: Entry malM-3' U64A;U85G;U86A (structured_RNA) RNA: GCUUUAUCAGCAGUGUAAAAGGCAAGGGGUAAUUACGCCCCACAGUGCUGAUUUUGCAACAACAGGUGCGUCUCCUGGCGCACCGAUUUUU has what Kd?
Result :: 160

More entries:
Query :: Bench note: what Kd did FinP A39U;G75U;A76U (structured_RNA) RNA: GGAUACAUAGGAACCUCCUCACAAAGGAUUCUAUGGACUGUCGAUGCAGGGAGUUCACGUCUCCCUGCAUCGGCUUUUUU show?
Result :: 37
